Data provenance is the supplement of paper PMC11451515.

system: P12-Ichikawa; assay: cell viability relative to DMSO control; higher = less cytotoxic; conditions: RPMI 5 mM glucose + 10% dialyzed FBS; 48 h; 0.19 µM
Quick list: cell viability per entry.
# number only, unit % dropped from output

Below: 2 compounds and their reported cell viability.
{"columns": ["compound", "measuredNumber"],
 "data": [
  ["Cc1cc2c(F)c(Oc3ncnn4cc(OC[C@@H](C)O)c(C)c34)ccc2[nH]1", 102],
  ["O=C(Nc1ccc(F)c(C(F)(F)F)c1)Nc1nnc(-c2ccncc2)s1", 120]
]}

Give cell viability; test system P12-Ichikawa; compound "COc1ccc(C(C)=O)c(O)c1" 114

---

tested on: NOMO1; assay: cell viability relative to DMSO control; higher = less cytotoxic; details: HPLM + 10% dialyzed FBS; 48 h; 0.0211 µM
readoutName: cell viability (%)
# number only, unit % dropped from output

Below: 4 molecules and their reported cell viability.
{"columns": ["molecule", "testSystem", "unitAnnotation", "cell viability"],
 "data": [
  ["OC[C@H]1OCC(O1)[N@@]2C=CC(N)=NC2=O (some centres undefined)", "NOMO1", "%", 105],
  ["O=C(Nc1ccc(F)c(C(F)(F)F)c1)Nc1nnc(-c2ccncc2)s1", "NOMO1", "%", 130],
  ["CO[C@@H]1COCC[C@@H]1N[C@@H]1CC[C@@](C(=O)N2CCc3ncc(C(F)(F)F)cc3C2)(C(C)C)C1", "NOMO1", "%", 142],
  ["CN1\\C(=C(\\O)C2=CC=CC=C2[S+]1([O-])=O)C(=O)NC3=NC=C(C)S3", "NOMO1", "%", 114]
]}

Answer with the recorded cell viability of "CN[C@@H]1[C@H](O)[C@H](NC)[C@H]2O[C@@]3(O)C(=O)C[C@@H](C)O[C@H]3O[C@@H]2[C@H]1O" only. 113

---

test system: NOMO1; assay: cell viability relative to DMSO control; higher = less cytotoxic; conditions: HPLM + 10% dialyzed FBS; 48 h; 0.00702 µM
readoutName: cell viability (%)
# number only, unit % dropped from output

{"columns": ["molecule", "testSystem", "cell viability [%]"],
 "data": [
  ["O=C(O)C1=NC(C(=O)O)CC(/C=C/N2c3cc(O)c(OC4OC(CO)C(O)C(O)C4O)cc3CC2C(=O)O)=C1 (centres undefined)", "NOMO1", 115]
]}

Answer with the recorded cell viability of "CC(C)(C)c1[nH]cnc1/C=c1\[nH]c(=O)/c(=C/c2ccccc2)[nH]c1=O" only. 31

Answer with the recorded cell viability of "C[C@]1(c2nc3c(C(N)=O)cccc3[nH]2)CCCN1" only. 84

Answer with the recorded cell viability of "O=c1[nH]c2ccccc2n1C1CCN(Cc2ccc(-c3nc4cc5nc[nH]c5cc4nc3-c3ccccc3)cc2)CC1" only. 114

Answer with the recorded cell viability of "CNc1nccc(-c2cccnc2Oc2cc(C(=O)Nc3cccc(C(F)(F)F)c3)ccc2C)n1" only. 120

Answer with the recorded cell viability of "Cc1cc(C(C)(C)C)c(O)c(C)c1CC1=NCCN1" only. 103

Answer with the recorded cell viability of "C[C@]12CCC(=O)C=C1CC[C@@H]1[C@@H]2CC[C@@]2(C)[C@H]1CC[C@]2(C)O" only. 115

Answer with the recorded cell viability of "CCN1\C=C(\C(O)=O)C(=O)C2=CC=C(C)N=C12" only. 99.4

Answer with the recorded cell viability of "CC(C)C(=O)Oc1ccc(CO)cc1[C@H](CCN(C(C)C)C(C)C)c1ccccc1" only. 85.7
